target: cdk1/cyclin B (Homo sapiens, UniProt P06493); experiment: Cyclin-dependent kinase assay, cdk1/cyclin B; conditions: CDK1 IC50, nM, Histone H1, 10 µM ATP
Sequence (P06493 whole entry): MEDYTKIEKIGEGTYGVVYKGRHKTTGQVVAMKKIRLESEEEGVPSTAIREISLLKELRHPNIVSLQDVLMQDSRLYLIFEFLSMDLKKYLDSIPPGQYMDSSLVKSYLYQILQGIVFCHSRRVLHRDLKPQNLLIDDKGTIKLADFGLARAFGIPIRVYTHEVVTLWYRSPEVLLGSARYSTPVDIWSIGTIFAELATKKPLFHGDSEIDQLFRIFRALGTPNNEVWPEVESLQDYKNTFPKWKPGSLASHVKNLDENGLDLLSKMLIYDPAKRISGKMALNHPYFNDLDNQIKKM
Sequence (P14635 whole entry partner): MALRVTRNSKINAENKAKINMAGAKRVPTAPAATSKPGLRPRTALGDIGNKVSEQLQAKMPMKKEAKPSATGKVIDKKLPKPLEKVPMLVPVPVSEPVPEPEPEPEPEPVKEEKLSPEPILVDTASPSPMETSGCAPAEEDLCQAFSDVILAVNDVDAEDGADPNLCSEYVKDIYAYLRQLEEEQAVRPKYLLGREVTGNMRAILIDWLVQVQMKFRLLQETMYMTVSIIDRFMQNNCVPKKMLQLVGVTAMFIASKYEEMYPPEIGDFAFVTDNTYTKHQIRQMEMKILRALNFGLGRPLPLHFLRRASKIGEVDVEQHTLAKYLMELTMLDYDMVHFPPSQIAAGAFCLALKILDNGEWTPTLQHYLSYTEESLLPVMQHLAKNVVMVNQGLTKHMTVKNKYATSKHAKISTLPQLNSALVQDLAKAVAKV
Structures can show the parent of a compound that is named as a salt.
attribute-measured: IC50 (nM)
# unit: nM | format: bare number

Provide measured IC50 on cdk1/cyclin B (Homo sapiens, UniProt P06493) for C=CCCC(=O)N1CCC(Nc2nc(N[C@H]3CC[C@H](N)CC3)nc3c2ncn3C2CCCC2)CC1 [compound 49, dihydrochloride] please. 121

Provide measured IC50 on cdk1/cyclin B (Homo sapiens, UniProt P06493) for `N[C@H]1CC[C@H](Nc2nc(NC3CCN(C(=O)c4c(Cl)cccc4Cl)CC3)c3ncn(C4CCCC4)c3n2)CC1` please. 164

Provide measured IC50 on cdk1/cyclin B (Homo sapiens, UniProt P06493) for COc1ccccc1NC(=O)N1CCC(Nc2nc(N[C@H]3CC[C@H](N)CC3)nc3c2ncn3C2CCCC2)CC1 [compound 163, dihydrochloride] please. 37

Provide measured IC50 on cdk1/cyclin B (Homo sapiens, UniProt P06493) for CC(=O)c1cccc(NC(=O)N2CCC(Nc3nc(N[C@H]4CC[C@H](N)CC4)nc4c3ncn4C3CCCC3)CC2)c1 [compound 189, dihydrochloride] please. 20

Provide measured IC50 on cdk1/cyclin B (Homo sapiens, UniProt P06493) for CCCC(=O)N1CCC(Nc2nc(N[C@H]3CC[C@H](N)CC3)nc3c2ncn3C2CCCC2)CC1 [compound 58, dihydrochloride] please. 52

Provide measured IC50 on cdk1/cyclin B (Homo sapiens, UniProt P06493) for N[C@H]1CC[C@H](Nc2nc(NC3CCN(S(=O)(=O)/C=C/c4ccccc4)CC3)c3ncn(C4CCCC4)c3n2)CC1 [compound 118, dihydrochloride] please. 22

----------
assay: in vivo; conditions: male, Hsd:ICR (CD-1), mouse, plasma, iv, 18 mg/kg
Can you tell me concentration at 0.25 h for the items I'm about to list?
# unit: ng/mL | format: bare number

State, in one line, measured concentration at 0.25 h of COc1ccc(OC(=O)N2CCC(Nc3nc(N[C@H]4CC[C@H](N)CC4)nc4c3ncn4C3CCCC3)CC2)cc1.Cl.Cl [compound 84, dihydrochloride] 883

State, in one line, measured concentration at 0.25 h of CCOC(=O)c1ccc(NC(=O)N2CCC(Nc3nc(N[C@H]4CC[C@H](N)CC4)nc4c3ncn4C3CCCC3)CC2)cc1.Cl.Cl [compound 154, dihydrochloride] 1130

State, in one line, measured concentration at 0.25 h of Cl.Cl.N#Cc1ccc(S(=O)(=O)N2CCC(Nc3nc(N[C@H]4CC[C@H](N)CC4)nc4c3ncn4C3CCCC3)CC2)cc1 [compound 109, dihydrochloride] 915

State, in one line, measured concentration at 0.25 h of Cl.Cl.N[C@H]1CC[C@H](Nc2nc(NC3CCN(C(=O)c4cccc(C(F)(F)F)c4F)CC3)c3ncn(C4CCCC4)c3n2)CC1 [compound 12, dihydrochloride] 2360

State, in one line, measured concentration at 0.25 h of Cl.Cl.N[C@H]1CC[C@H](Nc2nc(NC3CCN(C(=O)Oc4ccc(Br)cc4)CC3)c3ncn(C4CCCC4)c3n2)CC1 [compound 81, dihydrochloride] 394

State, in one line, measured concentration at 0.25 h of COC(=O)c1ccccc1S(=O)(=O)N1CCC(Nc2nc(N[C@H]3CC[C@H](N)CC3)nc3c2ncn3C2CCCC2)CC1.Cl.Cl [compound 111, dihydrochloride] 1090

State, in one line, measured concentration at 0.25 h of COC(=O)c1ccc(OC(=O)N2CCC(Nc3nc(N[C@H]4CC[C@H](N)CC4)nc4c3ncn4C3CCCC3)CC2)cc1.Cl.Cl [compound 83, dihydrochloride] 218

State, in one line, measured concentration at 0.25 h of Cl.Cl.N[C@H]1CC[C@H](Nc2nc(NC3CCN(C(=O)Oc4ccccc4)CC3)c3ncn(C4CCCC4)c3n2)CC1 [compound 85, dihydrochloride] 342

----------
molecular target: cdk2/cyclin E (Homo sapiens, UniProt P24941); assay: Cyclin-dependent kinase assay, cdk2/cyclin E; conditions: CDK2 IC50, nM, GST-pRb substrate, 10 µM ATP
Structures can show the parent of a compound that is named as a salt.
attribute-measured: IC50 (nM)
# unit: nM | format: bare number

State, in one line, measured IC50 of CCCC(=O)N1CCC(Nc2nc(N[C@H]3CC[C@H](N)CC3)nc3c2ncn3C2CCCC2)CC1 [compound 58, dihydrochloride] 68

State, in one line, measured IC50 of CCOc1ccccc1NC(=O)N1CCC(Nc2nc(N[C@H]3CC[C@H](N)CC3)nc3c2ncn3C2CCCC2)CC1 [compound 171, dihydrochloride] 89

State, in one line, measured IC50 of CC(=O)c1ccc(NC(=O)N2CCC(Nc3nc(N[C@H]4CC[C@H](N)CC4)nc4c3ncn4C3CCCC3)CC2)cc1 [compound 188, dihydrochloride] 31

State, in one line, measured IC50 of CCCCNC(=O)N1CCC(Nc2nc(N[C@H]3CC[C@H](N)CC3)nc3c2ncn3C2CCCC2)CC1 [compound 204, dihydrochloride] 51

State, in one line, measured IC50 of CCC(=O)N1CCC(Nc2nc(N[C@H]3CC[C@H](N)CC3)nc3c2ncn3C2CCCC2)CC1 [compound 53, dihydrochloride] 80

State, in one line, measured IC50 of N[C@H]1CC[C@H](Nc2nc(NC3CCN(C(=O)CSc4ccccc4)CC3)c3ncn(C4CCCC4)c3n2)CC1 [compound 46, dihydrochloride] 55

----------
assay: Red blood cell binding, mouse whole blood; assay type: in vitro ADME; details: 30 minutes at 37°C, 500 ng/ml
Can you tell me Mean Red Blood Cell to Plasma Ratio for the items I'm about to list?

State, in one line, measured Mean Red Blood Cell to Plasma Ratio of COC(=O)c1ccccc1S(=O)(=O)N1CCC(Nc2nc(N[C@H]3CC[C@H](N)CC3)nc3c2ncn3C2CCCC2)CC1.Cl.Cl [compound 111] 2.2

State, in one line, measured Mean Red Blood Cell to Plasma Ratio of COC(=O)c1ccc(OC(=O)N2CCC(Nc3nc(N[C@H]4CC[C@H](N)CC4)nc4c3ncn4C3CCCC3)CC2)cc1.Cl.Cl [compound 83] 112.2

State, in one line, measured Mean Red Blood Cell to Plasma Ratio of Cl.Cl.N[C@H]1CC[C@H](Nc2nc(NC3CCN(C(=O)c4cccc(C(F)(F)F)c4F)CC3)c3ncn(C4CCCC4)c3n2)CC1 [compound 12] 1.9

State, in one line, measured Mean Red Blood Cell to Plasma Ratio of Cl.Cl.N#Cc1ccc(S(=O)(=O)N2CCC(Nc3nc(N[C@H]4CC[C@H](N)CC4)nc4c3ncn4C3CCCC3)CC2)cc1 [compound 109] 2.4

State, in one line, measured Mean Red Blood Cell to Plasma Ratio of Cl.Cl.N[C@H]1CC[C@H](Nc2nc(NC3CCN(C(=O)Oc4ccc(Cl)cc4)CC3)c3ncn(C4CCCC4)c3n2)CC1 [compound 88] 3.5

State, in one line, measured Mean Red Blood Cell to Plasma Ratio of Cl.Cl.N[C@H]1CC[C@H](Nc2nc(NC3CCN(C(=O)Oc4ccccc4)CC3)c3ncn(C4CCCC4)c3n2)CC1 [compound 85] 6.1

----------
molecular target: cdk2/cyclin E (Homo sapiens); experiment: Cyclin-dependent kinase assay, cdk2/cyclin E; settings: CDK2 IC50, nM, GST-pRb substrate, 10 µM ATP
Structures can show the parent of a compound that is named as a salt.
Can you tell me IC50 for the items I'm about to list?
# unit: nM | format: bare number

State, in one line, measured IC50 of Cl.Cl.N[C@H]1CC[C@H](Nc2nc(NC3CCN(C(=O)Oc4ccc(Br)cc4)CC3)c3ncn(C4CCCC4)c3n2)CC1 [compound 81, dihydrochloride] 39

State, in one line, measured IC50 of COC(=O)c1ccc(C(=O)N2CCC(Nc3nc(N[C@H]4CC[C@H](N)CC4)nc4c3ncn4C3CCCC3)CC2)cc1 [compound 11, dihydrochloride] 78

State, in one line, measured IC50 of N[C@H]1CC[C@H](Nc2nc(NC3CCN(C(=O)C(O)c4ccccc4)CC3)c3ncn(C4CCCC4)c3n2)CC1 (mixture of isomers) [compound 50, dihydrochloride] 44

----------
biological target: cdk2/cyclin E (Homo sapiens); assay: Cyclin-dependent kinase assay, cdk2/cyclin E; details: CDK2 IC50, nM, GST-pRb substrate, 10 µM ATP
Where a name gives a salt, the structure may show the parent alone.
attribute-measured: IC50 (nM)
# unit: nM | format: bare number

State, in one line, measured IC50 of N[C@H]1CC[C@H](Nc2nc(NC3CCN(C(=O)c4cccc([N+](=O)[O-])c4)CC3)c3ncn(C4CCCC4)c3n2)CC1 [compound 26] 78

State, in one line, measured IC50 of Cl.Cl.N[C@H]1CC[C@H](Nc2nc(NC3CCN(C(=O)Nc4ccc(C(F)(F)F)cc4)CC3)c3ncn(C4CCCC4)c3n2)CC1 [compound 149, dihydrochloride] 51

State, in one line, measured IC50 of N[C@H]1CC[C@H](Nc2nc(NC3CCN(C(=O)Nc4ccc(Cl)cc4Cl)CC3)c3ncn(C4CCCC4)c3n2)CC1 [compound 167, dihydrochloride] 54

State, in one line, measured IC50 of CC(C)n1cnc2c(NC3CCN(C(=O)Nc4ccc(OC(F)(F)F)cc4)CC3)nc(N[C@H]3CC[C@H](N)CC3)nc21 [compound 211, dihydrochloride] 612

State, in one line, measured IC50 of N[C@H]1CC[C@H](Nc2nc(NC3CCN(C(=O)c4cnc5ccccc5n4)CC3)c3ncn(C4CCCC4)c3n2)CC1 [compound 4, dihydrochloride] 339

State, in one line, measured IC50 of C[C@H](O)C(=O)N1CCC(Nc2nc(N[C@H]3CC[C@H](N)CC3)nc3c2ncn3C2CCCC2)CC1 [compound 47, dihydrochloride] 14

State, in one line, measured IC50 of COc1cc(OC)cc(C(=O)N2CCC(Nc3nc(N[C@H]4CC[C@H](N)CC4)nc4c3ncn4C3CCCC3)CC2)c1 [compound 17] 189

State, in one line, measured IC50 of Cc1cccc(C(=O)N2CCC(Nc3nc(N[C@H]4CC[C@H](N)CC4)nc4c3ncn4C3CCCC3)CC2)c1 [compound 73] 73

State, in one line, measured IC50 of N[C@H]1CC[C@H](Nc2nc(NC3CCN(C(=O)Cc4cccs4)CC3)c3ncn(C4CCCC4)c3n2)CC1 [compound 61, dihydrochloride] 38

State, in one line, measured IC50 of N[C@H]1CC[C@H](Nc2nc(NC3CCN(S(=O)(=O)Cc4ccccc4)CC3)c3ncn(C4CCCC4)c3n2)CC1 [compound 119, dihydrochloride] 31

State, in one line, measured IC50 of N[C@H]1CC[C@H](Nc2nc(NC3CCN(C(=O)Nc4cc(F)ccc4F)CC3)c3ncn(C4CCCC4)c3n2)CC1 [compound 180, dihydrochloride] 44

State, in one line, measured IC50 of C=CCCOC(=O)N1CCC(Nc2nc(N[C@H]3CC[C@H](N)CC3)nc3c2ncn3C2CCCC2)CC1 [compound 100, dihydrochloride] 50
